System tested: 5-hydroxytryptamine receptor 7 (Homo sapiens)
Sequence (P34969 whole entry): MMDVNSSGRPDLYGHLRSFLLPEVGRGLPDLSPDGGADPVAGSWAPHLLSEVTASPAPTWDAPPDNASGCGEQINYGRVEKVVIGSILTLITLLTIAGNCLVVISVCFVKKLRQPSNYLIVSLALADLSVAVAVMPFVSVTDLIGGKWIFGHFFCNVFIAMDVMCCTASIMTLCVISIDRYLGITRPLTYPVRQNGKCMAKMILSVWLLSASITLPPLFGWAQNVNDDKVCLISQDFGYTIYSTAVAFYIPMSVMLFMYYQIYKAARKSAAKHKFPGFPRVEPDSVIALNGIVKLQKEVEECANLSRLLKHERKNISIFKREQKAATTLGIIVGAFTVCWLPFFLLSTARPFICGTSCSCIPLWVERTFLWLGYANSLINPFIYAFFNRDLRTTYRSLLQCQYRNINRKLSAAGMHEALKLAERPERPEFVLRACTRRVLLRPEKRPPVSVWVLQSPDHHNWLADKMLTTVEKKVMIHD

{"Structure smiles": "c1cnc(N2CCN(CCCc3nc4ccccc4s3)CC2)nc1", "System tested": "5-hydroxytryptamine receptor 7 (Homo sapiens)", "Ki": "342 nM"}

###

System tested: Sigma non-opioid intracellular receptor 1 (Homo sapiens, UniProt Q99720)
Sequence (Q99720 whole entry): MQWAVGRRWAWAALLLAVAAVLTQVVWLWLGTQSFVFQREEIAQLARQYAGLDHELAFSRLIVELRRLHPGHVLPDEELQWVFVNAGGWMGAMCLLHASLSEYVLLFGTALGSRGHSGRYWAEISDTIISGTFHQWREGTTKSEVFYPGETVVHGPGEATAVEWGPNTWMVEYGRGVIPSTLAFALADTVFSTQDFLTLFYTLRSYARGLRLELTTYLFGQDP
Method: Binding affinity to sigma-1 receptor (unknown origin) by PDSP assay

{"Structure smiles": "c1cnc(N2CCN(CCCc3nc4ccccc4s3)CC2)nc1", "Output unit": "nM", "Ki": 350}

###

Method: Selectivity ratio of Ki for human dopamine D3 receptor to Ki for rat dopamine D4 receptor
Label t when Ratio Ki is at or above 8; otherwise label f.

{"Compound": "Fc1ccc(SCCCN2CCN(c3ncccn3)CC2)cc1", "Class": "f"}
{"Compound": "Clc1ccc(N2CCN(CCCc3nc4ccccc4s3)CC2)cc1", "Class": "f"}
{"Compound": "FC(F)(F)c1ccc(OCCCN2CCN(c3ccccn3)CC2)cc1", "Class": "t"}
{"Compound": "Clc1ccc(N2CCN(CCCOc3ccccc3)CC2)cc1", "Class": "t"}
{"Compound": "Clc1ccc(N2CCN(CCCCc3nc4ccccc4o3)CC2)cc1", "Class": "f"}
{"Compound": "Clc1ccc(N2CCN(CCCCCc3nc4ccccc4o3)CC2)cc1", "Class": "f"}
{"Compound": "Clc1ccc(N2CCN(CCCc3cc4ccccc4o3)CC2)cc1", "Class": "t"}
{"Compound": "Fc1ccc(OCCCN2CCC(c3ccc(Cl)cc3)CC2)cc1", "Class": "t"}
{"Compound": "[O-][S+](CCCN1CCN(c2ccc(Cl)cc2)CC1)c1ccc(F)cc1 (configuration not stated)", "Class": "t"}
{"Compound": "Fc1ccc(SCCCN2CCN(c3ccccn3)CC2)cc1", "Class": "t"}
{"Compound": "Fc1ccc(OCCCN2CCN(c3ncccn3)CC2)cc1", "Class": "t"}
{"Compound": "Clc1ccc(N2CCN(CCCc3nc4ccccc4o3)CC2)cc1", "Class": "f"}
{"Compound": "Clc1ccc(N2CCN(CCc3nc4ccccc4o3)CC2)cc1", "Class": "f"}
{"Compound": "Cc1ccc(N2CCN(CCCOc3ccc(F)cc3)CC2)nc1", "Class": "t"}
{"Compound": "Cc1ccc(N2CCN(CCCSc3ccc(F)cc3)CC2)nc1", "Class": "t"}
{"Compound": "Fc1ccc(CCCCN2CCN(c3ccc(Cl)cc3)CC2)cc1", "Class": "t"}
{"Compound": "Fc1ccc(SCCCN2CCN(c3ccc(Cl)cc3)CC2)cc1", "Class": "t"}
{"Compound": "Clc1ccc(N2C[C@H]3C[C@@H]2CN3CCCc2cc3ccccc3o2)cc1", "Class": "f"}
{"Compound": "O=C1c2ccccc2CC1CCN1CCN(c2ccc(Cl)cc2)CC1 (configuration not stated)", "Class": "t"}
{"Compound": "O=C1c2ccc(F)cc2CC1CCN1CCN(c2ccc(Cl)cc2)CC1 (configuration not stated)", "Class": "t"}

###

System tested: UniProt:P30729
Sequence (P30729 whole entry): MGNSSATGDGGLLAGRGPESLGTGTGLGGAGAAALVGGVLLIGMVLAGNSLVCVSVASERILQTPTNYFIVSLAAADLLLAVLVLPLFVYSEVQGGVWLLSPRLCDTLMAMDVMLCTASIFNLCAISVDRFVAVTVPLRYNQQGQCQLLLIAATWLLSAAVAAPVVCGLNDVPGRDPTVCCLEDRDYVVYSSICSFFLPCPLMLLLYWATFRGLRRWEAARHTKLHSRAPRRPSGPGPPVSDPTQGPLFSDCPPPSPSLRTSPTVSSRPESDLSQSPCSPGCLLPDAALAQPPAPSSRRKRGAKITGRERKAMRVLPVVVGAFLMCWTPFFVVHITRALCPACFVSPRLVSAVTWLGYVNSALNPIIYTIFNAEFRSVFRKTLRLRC
Method: Displacement of [3H]N-methylspiperone from rat dopamine D4 receptor by PDSP assay
Condition context: read-out: Ki
pKi: −log10 of the molar value.
Quantity measured: pKi

{"Compound": "Clc1ccc(N2CCN(CCCCCc3nc4ccccc4o3)CC2)cc1", "System tested": "UniProt:P30729", "Quantity measured": "pKi", "Readout value": 6.62}
{"Compound": "O=C1c2ccc(F)cc2CC1CCN1CCN(c2ccc(Cl)cc2)CC1 (stereo not drawn)", "System tested": "UniProt:P30729", "Quantity measured": "pKi", "Readout value": 8.21}
{"Compound": "Clc1ccc(N2CCN(CCCCc3nc4ccccc4o3)CC2)cc1", "System tested": "UniProt:P30729", "Quantity measured": "pKi", "Readout value": 7.51}
{"Compound": "Cc1ccc(N2CCN(CCCSc3ccc(F)cc3)CC2)nc1", "System tested": "UniProt:P30729", "Quantity measured": "pKi", "Readout value": 7.70}
{"Compound": "[O-][S+](CCCN1CCN(c2ccc(Cl)cc2)CC1)c1ccc(F)cc1 (stereo not drawn)", "System tested": "UniProt:P30729", "Quantity measured": "pKi", "Readout value": 7.89}
{"Compound": "Clc1ccc(N2CCCN(CCCc3cc4ccccc4o3)CC2)cc1", "System tested": "UniProt:P30729", "Quantity measured": "pKi", "Readout value": 6.73}
{"Compound": "FC(F)(F)c1ccc(OCCCN2CCN(c3ccccn3)CC2)cc1", "System tested": "UniProt:P30729", "Quantity measured": "pKi", "Readout value": 7.92}
{"Compound": "c1cnc(N2CCN(CCCCc3nc4ccccc4s3)CC2)nc1", "System tested": "UniProt:P30729", "Quantity measured": "pKi", "Readout value": 9.08}
